Experiment: Solubility of APIs and THEDES in PBS, excess added, 24 h stirring, UV spectroscopy
Type: physicochemical
Details: aqueous buffer, thermodynamic from solid; PBS (pH 7.4), 37 °C

>  <compound_structure>
CC[C@@H](CO)NCCN[C@@H](CC)CO

>  <solubility at 24 h>
4640 µg/mL

$$$$

* * *

Test: Permeability and diffusion in Franz diffusion cells through PES-U membrane

>  <compound>
CC[C@@H](CO)NCCN[C@@H](CC)CO [Ethambutol, ethambutol]

>  <Papp at 180 min / ×10⁻⁶ cm/s>
819

$$$$
